# Test system: MES-SA/DX5
# assay.protocol: MTS growth inhibition, multi-drug resistant MES-SA/DX5 cells
# Type: cell-based, human
# details: Homo sapiens, MES-SA/Dx5, read-out: IC50 MES/DX5
pIC50: −log10 of the molar value.
Attribute: pIC50
outcome.measure: pIC50

>>> observed_value("CN(NC(=O)CC(=O)NN(C)C(=S)c1cc(Cl)ccc1Cl)C(=S)c1cc(Cl)ccc1Cl")
8.00
>>> observed_value("COc1ccc(C)c(C(=S)N(C)NC(=O)CC(=O)NN(C)C(=S)c2cc(OC)ccc2C)c1")
7.30
>>> observed_value("COc1cccc(C(=S)N(C)NC(=O)C(C)C(=O)NN(C)C(=S)c2cccc(OC)c2OC)c1OC")
8.30
>>> observed_value("CCN(NC(=O)C(C)C(=O)NN(CC)C(=S)c1ccccc1)C(=S)c1ccccc1")
7.30

* * *

# assay.protocol: MTS cytotoxicity, 39SK normal fibroblast
# Type: cell-based
# details: human, 39SK cells (normal fibroblast), MTS assay, read-out: In vitro Cytotoxicity IC50, 39SK
outcome.measure: IC50 at 72 h (nM)

>>> observed_value("CC[C@]1(O)C[C@H]2CN(CCc3c([nH]c4ccccc34)[C@@](C(=O)OC)(c3cc4c(cc3OC)N(C=O)[C@H]3[C@@](O)(C(=O)OC)[C@H](OC(C)=O)[C@]5(CC)C=CCN6CC[C@]43[C@@H]65)C2)C1 [Vincristine]")
1000
>>> observed_value("CC(=O)O[C@H]1C(=O)[C@@]2(C)[C@H]([C@H](OC(=O)c3ccccc3)[C@]3(O)C[C@H](OC(=O)[C@H](O)[C@@H](NC(=O)c4ccccc4)c4ccccc4)C(C)=C1C3(C)C)[C@]1(OC(C)=O)CO[C@@H]1C[C@@H]2O [Taxol ™, paclitaxel]")
1000

Recorded values, source patent US20060142393A1.
